- studyTarget: Endothelin-1 receptor (Homo sapiens)
- Sequence (P25101 whole entry): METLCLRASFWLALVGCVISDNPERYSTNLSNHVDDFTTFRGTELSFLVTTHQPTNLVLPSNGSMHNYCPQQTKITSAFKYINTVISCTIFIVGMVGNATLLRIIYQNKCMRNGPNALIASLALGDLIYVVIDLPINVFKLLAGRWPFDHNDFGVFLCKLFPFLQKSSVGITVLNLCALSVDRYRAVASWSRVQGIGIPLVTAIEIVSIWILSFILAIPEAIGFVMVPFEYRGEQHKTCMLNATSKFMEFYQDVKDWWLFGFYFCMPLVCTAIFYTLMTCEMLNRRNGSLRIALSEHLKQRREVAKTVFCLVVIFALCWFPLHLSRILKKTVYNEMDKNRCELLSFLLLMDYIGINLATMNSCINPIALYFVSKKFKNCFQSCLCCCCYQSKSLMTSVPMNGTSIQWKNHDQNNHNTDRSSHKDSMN
- methodDescription: Displacement of [125I]endothelin-1 from human recombinant ETA receptor expressed in CHO cells
measurementLabel: IC50 (µM)
# value in µM; strip the unit string

The following molecules have reported results that may help.
COC[C@@H]1Cc2cc3c(c(OC)c2[C@H](c2ccc(OC)c(OC)c2)[C@H]1COC)OCO3 [NIRTETRALIN]
75
COC[C@@H]1Cc2cc(OC)c3c(c2[C@H](c2ccc(OC)c(OC)c2)[C@H]1COC)OCO3 [HYPOPHYLLANTHIN]
40

Then there is this molecule:
Quickly give me recorded IC50 for COc1cc(C)c(OC)c2c1C[C@@H](C(=O)O)C[C@H]2c1ccccc1
160
